Test: in vitro
Details: human
parameter: viability at 24 h (%)
// return numeric value only (unit: %, not printed)

CC[C@H](CO)Nc1nc(NCc2ccccc2)c2ncn(C(C)C)c2n1 :: 77.8
CN(C)CCN1C(=O)c2cccc3cc(N)cc(c23)C1=O [NCGC00346513-01, amonafide] :: 68.2
C[C@@H]1O[C@@H](O[C@H]2C[C@@H](O)[C@]3(CO)[C@H]4[C@H](O)C[C@]5(C)[C@@H](C6=CC(=O)OC6)CC[C@]5(O)[C@@H]4CC[C@]3(O)C2)[C@H](O)[C@H](O)[C@H]1O :: 74.3
S=C(NCc1ccc2c(c1)OCO2)N1CCN(c2ncnc3c2oc2ccccc23)CC1 :: 87.7
O=C1NC(=O)/C(=C/c2ccc3nccc(-c4ccncc4)c3c2)S1 :: 75.5

For `N[C@@H](Cc1ccc(N(CCCl)CCCl)cc1)C(=O)O` , what is its reported viability at 24 h?
89.3

For `O=c1[nH]c(=O)n([C@H]2C[C@H](O)[C@@H](CO)O2)cc1F` , what is its reported viability at 24 h?
97.9

For `CC(C)c1cc(C(=O)N2Cc3ccc(CN4CCN(C)CC4)cc3C2)c(O)cc1O` , what is its reported viability at 24 h?
90.6
